Here, each record is paired with measured GI50 data.
test system: OVCAR-4
Provide the reading as a plain figure in nM.

Use these answered entries as a reference point.
chemical_string=Cc1ccccc1[P+](CCCCOc1cc(O)c2c(=O)cc(-c3ccccc3)oc2c1)(c1ccccc1C)c1ccccc1C measurement_unit=nM value=429
chemical_string=O=c1cc(-c2ccccc2)oc2cc(OCCCC[P+](C3CCCCC3)(C3CCCCC3)C3CCCCC3)cc(O)c12 measurement_unit=nM value=686
chemical_string=O=c1cc(-c2ccccc2)oc2cc(OCCCC[P+](c3ccccc3)(c3ccccc3)c3ccccn3)cc(O)c12 measurement_unit=nM value=1140
chemical_string=Cc1ccc([P+](CCCCOc2cc(O)c3c(=O)cc(-c4ccccc4)oc3c2)(c2ccc(C)cc2)c2ccc(C)cc2)cc1 measurement_unit=nM value=247
chemical_string=O=c1cc(-c2ccccc2)oc2cc(OCCCC[P+](c3ccccc3)(c3ccccc3)c3ccccc3)cc(O)c12 measurement_unit=nM value=370

Task item: Report GI50 for "COc1ccc([P+](CCCCOc2cc(O)c3c(=O)cc(-c4ccccc4)oc3c2)(c2ccc(OC)cc2)c2ccc(OC)cc2)cc1" tested on OVCAR-4.
Reply: 382

Task item: Consider next the compound "COc1c(C)cc([P+](CCCCOc2cc(O)c3c(=O)cc(-c4ccccc4)oc3c2)(c2cc(C)c(OC)c(C)c2)c2cc(C)c(OC)c(C)c2)cc1C" in the same way.
Reply: 351

Task item: What would you report for "O=c1cc(-c2ccccc2)oc2cc(OCCCC[P+](c3ccc(F)cc3)(c3ccc(F)cc3)c3ccc(F)cc3)cc(O)c12" ?
Reply: 1640

###

The reader will find reported activity at 10 µM values listed item by item below.
System: BT-549
Test: NCI60 one-dose screen
Format: cell-based
Details: Homo sapiens; BT-549, 10 μM; read-out: Growth percent
Description: The screening results are presented in the Supplementary Materials (Table S1), where the cytotoxicity was determined for the 10 µM concentration. […] The negative numbers indicate significant decreases in the cell number. […] Following drug addition, the plates were incubated at 37 °C, 5% carbon dioxide, 95% air, and 100% relative humidity for an additional 48 hours. […] Growth inhibition (%) was calculated as: […]
Just the number please, in %, no unit attached.

Check out these entries, answers already filled in.
compound="Cc1ccc([P+](CCCCOc2cc(O)c3c(=O)cc(-c4ccccc4)oc3c2)(c2ccc(C)cc2)c2ccc(C)cc2)cc1 [3b]" readout_label="activity at 10 µM" value=-19
compound="O=c1cc(-c2ccccc2)oc2cc(OCCCC[P+](c3ccccc3)(c3ccccc3)c3ccccc3)cc(O)c12 [3a]" readout_label="activity at 10 µM" value=-83

Task item: Entry under review: O=c1cc(-c2ccccc2)oc2cc(OCCCC[P+](C3CCCCC3)(C3CCCCC3)C3CCCCC3)cc(O)c12 [3e] . Reported activity at 10 µM?
Reply: -89.9

Task item: Query O=c1cc(-c2ccccc2)oc2cc(O)cc(O)c12 [compound 2, 5,7-dihydroxyflavone, reference compound] next
Reply: 91

Task item: Another compound to check: Cc1ccccc1[P+](CCCCOc1cc(O)c2c(=O)cc(-c3ccccc3)oc2c1)(c1ccccc1C)c1ccccc1C [3g]
Reply: -98.1

Task item: Okay, and O=c1cc(-c2ccccc2)oc2cc(OCCCC[P+](c3ccccc3)(c3ccccc3)c3ccccn3)cc(O)c12 [3h] ?
Reply: -69.7

Task item: Would you mind doing COc1ccc([P+](CCCCOc2cc(O)c3c(=O)cc(-c4ccccc4)oc3c2)(c2ccc(OC)cc2)c2ccc(OC)cc2)cc1 [3c] as well?
Reply: -82.6

Task item: Next: COc1c(C)cc([P+](CCCCOc2cc(O)c3c(=O)cc(-c4ccccc4)oc3c2)(c2cc(C)c(OC)c(C)c2)c2cc(C)c(OC)c(C)c2)cc1C [3f]
Reply: -53.4

Task item: Also, O=c1cc(-c2ccccc2)oc2cc(OCCCC[P+](c3ccc(F)cc3)(c3ccc(F)cc3)c3ccc(F)cc3)cc(O)c12 [3d] please.
Reply: -76
